Below, each entry is listed with its recorded pIC50.
Sequence of the target: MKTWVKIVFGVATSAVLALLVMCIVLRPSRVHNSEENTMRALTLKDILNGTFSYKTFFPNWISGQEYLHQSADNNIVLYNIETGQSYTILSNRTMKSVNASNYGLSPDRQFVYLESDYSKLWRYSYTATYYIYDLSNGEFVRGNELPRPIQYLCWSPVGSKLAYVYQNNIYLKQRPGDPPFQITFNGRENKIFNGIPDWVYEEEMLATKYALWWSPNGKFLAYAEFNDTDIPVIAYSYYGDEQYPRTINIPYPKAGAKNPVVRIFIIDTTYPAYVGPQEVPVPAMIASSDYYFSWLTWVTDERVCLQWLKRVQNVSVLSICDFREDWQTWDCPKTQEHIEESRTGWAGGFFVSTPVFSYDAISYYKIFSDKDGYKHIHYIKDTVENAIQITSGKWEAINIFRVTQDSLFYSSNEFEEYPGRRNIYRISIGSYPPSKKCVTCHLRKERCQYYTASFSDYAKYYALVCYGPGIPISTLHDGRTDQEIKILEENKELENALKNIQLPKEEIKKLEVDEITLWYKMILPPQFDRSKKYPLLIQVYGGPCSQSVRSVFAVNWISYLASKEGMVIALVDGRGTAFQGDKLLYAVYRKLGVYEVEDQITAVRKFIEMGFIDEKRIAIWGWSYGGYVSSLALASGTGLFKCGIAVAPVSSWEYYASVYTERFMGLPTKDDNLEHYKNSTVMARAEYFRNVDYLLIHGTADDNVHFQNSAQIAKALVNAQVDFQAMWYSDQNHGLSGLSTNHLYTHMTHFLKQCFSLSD
pIC50: −log10 of the molar value.

| molecule | pIC50 |
| --- | --- |
| CS(=O)(=O)c1cccc(-c2ccc3c(C(=O)NCC(=O)N4CCC[C@H]4C#N)ccnc3c2)c1 | 8.20 |
| COc1cccc2c(C(=O)NCC(=O)N3CC(F)(F)C[C@H]3C#N)ccnc12 | 7.70 |
| CS(=O)(=O)c1ccc(-c2ccc3c(C(=O)NCC(=O)N4CCC[C@H]4C#N)ccnc3c2)cc1 [drawing 290] | 8.20 |
